# TEST_METHOD_NOTES: solvent given as SMILES
# COND: in OCC(O)CO
Mark fulfilled for fluorescence lifetime under 8 ns, not fulfilled if at or over.

Worked examples, 6 compounds total:
• CCC(=O)c1ccc2cc(N(C)C)ccc2c1 = fulfilled
• CCN(CC)c1ccc2nc3c4ccccc4c(=O)cc-3oc2c1 = fulfilled
• COc1c2ccccc2c(-c2ccccc2)c2ccccc12 = fulfilled
• CN(C)c1c2ccccc2cc2ccccc12 = not fulfilled
• CCOC(=O)C1CC(c2c(C#N)c(C)nn2-c2ccccc2)=CN1c1ccc(Br)cc1 (centres undefined) = fulfilled
• CCCn1c2cccc3oc4cccc5oc6cccc1c6[c+](c45)c32 = not fulfilled

I wonder whether `CCN(CC)c1ccc2c(C(F)(F)F)cc(=O)oc2c1` has fluorescence lifetime below 8 ns. Can you tell?
fulfilled

I wonder whether `O=c1cc(C(F)(F)F)c2cc3c4c(c2o1)CCCN4CCC3` has fluorescence lifetime below 8 ns. Can you tell?
fulfilled

I wonder whether `CCCn1c2cccc3oc4cccc5c4[c+](c32)c2c1cccc2n5CCC` has fluorescence lifetime below 8 ns. Can you tell?
not fulfilled

----------
# TEST_METHOD_NOTES: solvent given as SMILES
# COND: in O=P(c1ccccc1)(c1ccccc1)c1ccccc1Oc1ccccc1P(=O)(c1ccccc1)c1ccccc1
MEASURE: fluorescence lifetime (ns)
Reply numerically in ns, unit not repeated.

Sample records with fluorescence lifetime:
* O=C(c1ccc(-n2c3ccccc3c3ccccc32)cc1)c1ccc(-n2c3ccccc3c3ccccc32)cc1 | 59
* CC(C)(C)c1ccc2c(c1)c1cc(C(C)(C)C)ccc1n2-c1cc[n+]2c(c1)-c1ccccc1O[B-]2(F)F | 6.3
* c1ccc(-c2nc(-c3ccccc3)nc(-c3ccc(-n4c5ccccc5c5cc6c(cc54)C4c5ccccc5C6c5ccccc54)cc3)n2)cc1 | 9

For this molecule ( `c1ccc(-c2nnc(-c3cc(-c4nnc(-c5ccccc5)o4)c(-n4c5ccccc5c5ccccc54)cc3-n3c4ccccc4c4ccccc43)o2)cc1` ), measured fluorescence lifetime is 8.6

For this molecule ( `COc1ccc(-c2nnc(-c3cc(-c4nnc(-c5ccc(OC)cc5)o4)c(-n4c5ccccc5c5ccccc54)cc3-n3c4ccccc4c4ccccc43)o2)cc1` ), measured fluorescence lifetime is 7.3

For this molecule ( `CC(C)c1cc(C(C)C)c(B2c3ccccc3Oc3cc(-n4c5ccccc5c5c6c(c7ccccc7n6-c6ccccc6)c6c(c7ccccc7n6-c6ccccc6)c54)ccc32)c(C(C)C)c1` ), measured fluorescence lifetime is 24.7

For this molecule ( `Cc1cc(-c2nc(-c3ccccc3)nc(-c3ccccc3)n2)ccc1-n1c2ccccc2c2cc3c(cc21)C1c2ccccc2C3c2ccccc21` ), measured fluorescence lifetime is 10.6

----------
# TEST_METHOD_NOTES: solvent given as SMILES
# COND: in C1CCOC1
MEASURE: log10(fluorescence lifetime) (log10 of the value in ns)
# values: log10(fluorescence lifetime), units ns

For this compound ( `C(=C\c1cc2ccccc2c2ccccc12)/c1cc2ccccc2c2ccccc12` ), measured log10(fluorescence lifetime) is 0.24

For this compound ( `COc1cc2c(cc1-c1cccs1)Cc1c3c(c4c(c1-2)-c1cc(OC)c(-c2cccs2)cc1C4)C(=O)N(CCC(C)C)C3=O` ), measured log10(fluorescence lifetime) is 0.50

----------
# TEST_METHOD_NOTES: solvent given as SMILES
# COND: in ClC(Cl)(Cl)Cl
MEASURE: fluorescence lifetime (ns)
Reply numerically in ns, unit not repeated.

Sample records with fluorescence lifetime:
- CCN(CC)c1ccc2nc3c4ccccc4c(=O)cc-3oc2c1: 4.1
- CN(C)c1ccc(/C=C2\CC/C(=C\c3ccc(N(C)C)cc3)C2=O)cc1: 0.37
- CC1=[O+][B-]2(OC(=O)C(=O)O2)OC(c2c3ccccc3cc3ccccc23)=C1: 1.2

For this compound ( `COc1ccc2c(=O)c3c([nH]c2c1)-c1cc(Cl)ccc1NC3(C)C` ), measured fluorescence lifetime is 5.41

src = the Deep4Chem optical property database
